Source listed as patent US20200239555A1.

# tested-on: T1, biotinylated native human ApoC3 (human, UniProt P02656 21-99, biotinylated (site not stated))
# T1 construct: also called biotinylated human ApoC3
# assay-procedure: SPR, IgG1 over biotinylated ApoC3 on SA chip, pH 7.4
readout: Ka (M⁻¹)
Express it in M⁻¹; write the number only.

Given the binder 5E5WT human IgG1 (antibody, V domains shown) VH: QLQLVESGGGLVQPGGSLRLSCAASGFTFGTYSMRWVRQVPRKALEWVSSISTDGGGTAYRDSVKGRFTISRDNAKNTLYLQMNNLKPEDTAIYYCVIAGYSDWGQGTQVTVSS VL: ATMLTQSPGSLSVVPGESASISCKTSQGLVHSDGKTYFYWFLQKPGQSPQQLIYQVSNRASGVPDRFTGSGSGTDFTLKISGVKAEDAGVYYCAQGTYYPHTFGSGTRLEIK , what is its reported Ka? 1.95e+10

Given the binder mAb1 (antibody, IgG1, V domains shown, Produced as full length IgG1 (kappa) in ExpiCHO-S cells; also called humanized anti-ApoC3 antibody mAb1) VH: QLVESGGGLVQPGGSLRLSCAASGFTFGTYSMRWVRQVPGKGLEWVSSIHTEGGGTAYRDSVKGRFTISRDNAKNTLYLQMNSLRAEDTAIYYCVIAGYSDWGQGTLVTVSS VL: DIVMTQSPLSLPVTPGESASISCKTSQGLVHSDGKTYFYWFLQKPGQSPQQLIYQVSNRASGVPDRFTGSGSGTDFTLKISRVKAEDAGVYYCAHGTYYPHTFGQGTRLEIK , what is its reported Ka? 2.2e+10

Given the binder mAb18 (antibody, IgG1, V domains shown, Produced as full length IgG1 (kappa) in ExpiCHO-S cells; also called humanized anti-ApoC3 antibody mAb18) VH: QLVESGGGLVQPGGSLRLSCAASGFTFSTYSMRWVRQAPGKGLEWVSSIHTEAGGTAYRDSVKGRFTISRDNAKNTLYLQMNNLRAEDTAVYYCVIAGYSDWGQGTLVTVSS VL: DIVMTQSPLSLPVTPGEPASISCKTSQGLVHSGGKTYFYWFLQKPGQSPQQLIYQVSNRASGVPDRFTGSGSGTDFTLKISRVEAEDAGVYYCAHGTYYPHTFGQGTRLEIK , what is its reported Ka? 7.49e+08

Given the binder mAb5 (antibody, IgG1, V domains shown, Produced as full length IgG1 (kappa) in ExpiCHO-S cells; also called humanized anti-ApoC3 antibody mAb5) VH: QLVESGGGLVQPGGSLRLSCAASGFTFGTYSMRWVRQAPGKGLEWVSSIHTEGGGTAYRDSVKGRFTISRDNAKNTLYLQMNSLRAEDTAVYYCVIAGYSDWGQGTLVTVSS VL: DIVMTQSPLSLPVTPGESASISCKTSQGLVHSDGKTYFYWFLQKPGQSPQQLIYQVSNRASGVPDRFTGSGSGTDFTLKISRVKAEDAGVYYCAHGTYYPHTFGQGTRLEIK , what is its reported Ka? 6.76e+09
